- Experimental Target: HLA-B*58:01
- Protocol Text: IEDB peptide-MHC binding, purified MHC/direct/fluorescence; filed as Kd, often an IC50 or EC50 that approximates it; bounds were set here for any values at or beyond the usual limits of such assays
- Experimental Setup: source organism: Yersinia pestis
pKd: −log10 of the molar value.
Measurement Label: pKd

Enquiry: Please look up its pKd: LLIDDSFSS
Return: ≤ 4.70

----------
- Experimental Target: HLA-C*15:02
- Protocol Text: IEDB peptide-MHC binding, purified MHC/direct/fluorescence; filed as Kd, often an IC50 or EC50 that approximates it; bounds were set here for any values at or beyond the usual limits of such assays
- Experimental Setup: source organism: West Nile virus
Measurement Label: Kd (nM)
Numbers only, in nM.

Enquiry: API: value(readout=Kd, system=HLA-C*15:02) for record YTMDGEYRL
Return: 85

----------
- Experimental Target: HLA-C*05:01
- Protocol Text: IEDB peptide-MHC binding, purified MHC/direct/fluorescence; filed as Kd, often an IC50 or EC50 that approximates it; bounds were set here for any values at or beyond the usual limits of such assays
- Experimental Setup: source organism: dengue virus type 1
Measurement Label: Kd (nM)
Answers are plain numbers, in nM.

Enquiry: Please look up its Kd: FTMRLLSPV
Return: 2290

----------
- Experimental Target: HLA-B*27:03
- Protocol Text: IEDB peptide-MHC binding, purified MHC/direct/fluorescence; filed as Kd, often an IC50 or EC50 that approximates it; bounds were set here for any values at or beyond the usual limits of such assays
- Experimental Setup: source organism: Mycobacterium tuberculosis str. Haarlem
pKd: −log10 of the molar value.
Measurement Label: pKd

Enquiry: Please look up its pKd: LPVEYLQVP
Return: ≤ 4.70

----------
- Experimental Target: HLA-A*24:02
- Protocol Text: IEDB peptide-MHC binding, purified MHC/competitive/fluorescence; bounds were set here for any values at or beyond the usual limits of such assays
- Experimental Setup: source organism: Vaccinia virus Copenhagen
pIC50: −log10 of the molar value.
Measurement Label: pIC50

Enquiry: Please look up its pIC50: FYRSGTETK
Return: ≤ 4.00

----------
- Experimental Target: HLA-B*45:06
- Protocol Text: IEDB peptide-MHC binding, purified MHC/competitive/fluorescence; filed as Kd, often an IC50 or EC50 that approximates it; bounds were set here for any values at or beyond the usual limits of such assays
- Experimental Setup: source organism: Vibrio vulnificus YJ016
pKd: −log10 of the molar value.
Measurement Label: pKd

Enquiry: API: value(readout=pKd, system=HLA-B*45:06) for record YQRALHTSI
Return: ≤ 5.30

----------
- Experimental Target: HLA-A*68:23
- Protocol Text: IEDB peptide-MHC binding, purified MHC/competitive/fluorescence; filed as Kd, often an IC50 or EC50 that approximates it; bounds were set here for any values at or beyond the usual limits of such assays
- Experimental Setup: source organism: Brucella canis ATCC 23365
Measurement Label: Kd (nM)
Give bare numbers, in nM.

Enquiry: API: value(readout=Kd, system=HLA-A*68:23) for record ETVWPFFYA
Return: 1.3

----------
- Experimental Target: HLA-B*46:01
- Protocol Text: IEDB peptide-MHC binding, purified MHC/direct/fluorescence; filed as Kd, often an IC50 or EC50 that approximates it; bounds were set here for any values at or beyond the usual limits of such assays
- Experimental Setup: source organism: Yellow fever virus
Measurement Label: Kd

{"Seq String": "EVRLATMLF", "Kd": "≥ 20 µM"}

Consider now this further sequence.
Enquiry: Please look up its Kd: YFHKRDMRL
Return: ≥ 20 µM
